study.system: endogenously expressed TGR5 in NCI H716 (Homo sapiens, UniProt Q8TDU6)
Construct: human caecum carcinoma cell line NCI-H716 which endogenously expresses human TGR5; endogenous in cells; host or cells: NCI-H716
Sequence (Q8TDU6 1-330): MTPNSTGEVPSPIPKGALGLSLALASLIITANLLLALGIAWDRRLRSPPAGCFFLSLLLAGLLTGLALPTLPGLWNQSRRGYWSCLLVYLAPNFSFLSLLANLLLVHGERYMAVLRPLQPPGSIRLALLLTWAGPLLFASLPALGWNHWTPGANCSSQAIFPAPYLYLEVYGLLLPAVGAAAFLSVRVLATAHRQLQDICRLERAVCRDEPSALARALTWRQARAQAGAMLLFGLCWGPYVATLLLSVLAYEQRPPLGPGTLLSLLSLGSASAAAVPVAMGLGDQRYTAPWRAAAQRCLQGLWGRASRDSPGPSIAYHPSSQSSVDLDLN
assay.notes: Cell-based TGR5 assay, NCI-H716 cells endogenously expressing human TGR5, cAMP by HTRF
experimental.conditions: 30 min at 37 C, 22 nM to 50 μM, read-out: pEC50 endogenously expressed TGR5 in NCI H716 (converted)
Procedure: Two primary cell based screens were performed. The first utilized HEK293 cells stably transfected to heterologously express human TGR5. The second screen used the human caecum carcinoma cell line NCI-H716 which endogenously expresses human TGR5. In both assays, cells are treated with candidate TGR5 activators and assessed for the increased intercellular levels of cAMP. […] TGR5-mediated cAMP generation was measured using a homogeneous time resolved fluorescence (HTRF) detection method (Cisbio). […]
Below, each entry is listed with its recorded EC50.

Previously resolved entries follow.
{"columns": ["compound.structure", "value.reported"],
 "data": [
  ["CN(C[C@H](O)[C@@H](O)[C@H](O)[C@H](O)CO)C(=O)NCCCc1cc(Cl)c(CNC2(C(=O)N3CCN(C4CC4)c4ccccc43)CC2)cc1Cl", "126 to 1000 nM"],
  ["CN(C[C@H](O)[C@@H](O)[C@H](O)[C@H](O)CO)C(=O)CCCCc1cc(Cl)c(CNC2(C(=O)N3CCN(C4CC4)c4ccccc43)CC2)cc1Cl", "< 100 nM"],
  ["CCN1CC(OCc2cc(Cl)ccc2Cl)(C(=O)N2CCN(C3CC3)c3ccccc32)C1", "1260 to 50100 nM"],
  ["CN(C[C@H](O)[C@@H](O)[C@H](O)[C@H](O)CO)C(=O)NCCCCOc1cc(Cl)c(CN2CSC[C@H]2C(=O)N2CCN(C3CC3)c3ccccc32)cc1Cl", "126 to 1000 nM"],
  ["CN(C[C@H](O)[C@@H](O)[C@@H](O)[C@H](O)CO)C(=O)CCc1ccc(Cl)c(CNC2(C(=O)N3CCN(C4CC4)c4ccccc43)CC2)c1", "126 to 1000 nM"]
]}

Let us examine a further case.
Query: Looking for the measured EC50 of CN(C(=O)C1(OCc2cc(Cl)ccc2Cl)CC1)c1ccccc1OC1CCC1 , can you help?
Response: < 100 nM

* * *

Let's look at some molecules and their measured EC50.
study.system: human TGR5 (Homo sapiens)
Construct: expressed in transfected cells
assay.notes: Cell-based TGR5 assay, HEK293 cells stably expressing human TGR5, cAMP by HTRF
experimental.conditions: HEK293 cells stably expressing human TGR5, 30 min at 37 C, 0.05 nM to 10 μM, read-out: pEC50 Human TGR5 (converted)

The cases that follow already have their EC50 on record.
{"columns": ["molecule", "EC50"],
 "data": [
  ["O=C(COc1cc(Cl)ccc1Cl)N1CCN(C2CC2)c2ccccc21", "1260 to 50100 nM"],
  ["CN(C[C@H](O)[C@@H](O)[C@H](O)[C@H](O)CO)C(=O)CCCCc1ccc(C(F)(F)F)c(CN2CSC[C@H]2C(=O)N2CCN(C3CC3)c3ccccc32)c1", "1260 to 50100 nM"],
  ["O=C(C1CCN(Cc2cc(Cl)ccc2Cl)C1)N1CCN(C2CC2)c2ccccc21 (stereo not shown)", "1260 to 50100 nM"],
  ["O=C([C@@H]1CSCN1Cc1c(Cl)ccc(Cl)c1O)N1CCN(C2CC2)c2ccccc21", "126 to 1000 nM"],
  ["CN(C[C@H](O)[C@@H](O)[C@H](O)[C@H](O)CO)C(=O)NCCOc1cc(Cl)c(CN2CSC[C@H]2C(=O)N2CCN(C3CC3)c3ccccc32)cc1Cl", "126 to 1000 nM"],
  ["O=C([C@@H]1CCCN1Cc1cc(Cl)cc(OC(F)(F)F)c1)N1CCN(C2CC2)c2ccccc21", "126 to 1000 nM"]
]}

Let us move to another entry and its EC50.
Query: Checklist item: EC50 tested on human TGR5 (Homo sapiens), entry CN(C[C@H](O)[C@@H](O)[C@H](O)[C@H](O)CO)C(=O)NCCCc1ccc(Cl)c(CNC2(C(=O)N3CCN(C4CC4)c4ccccc43)CC2)c1 , value?
Response: 1260 to 50100 nM

* * *

study.system: endogenously expressed TGR5 in NCI H716 (Homo sapiens, UniProt Q8TDU6)
Construct: human caecum carcinoma cell line NCI-H716 which endogenously expresses human TGR5; endogenous in cells; host or cells: NCI-H716
assay.notes: Cell-based TGR5 assay, NCI-H716 cells endogenously expressing human TGR5, cAMP by HTRF
experimental.conditions: 30 min at 37 C, 22 nM to 50 μM, read-out: pEC50 endogenously expressed TGR5 in NCI H716 (converted)
# EC50 values compiled below

The following molecules have reported results that may help.
{"columns": ["molecule", "study.system", "experimental.endpoint", "value.reported"],
 "data": [
  ["O=C(O)CCCOc1cc(Cl)c(CNC2(C(=O)N3CCN(C4CC4)c4ccccc43)CC2)cc1Cl", "endogenously expressed TGR5 in NCI H716 (Homo sapiens, UniProt Q8TDU6)", "EC50", "1260 to 50100 nM"],
  ["O=C(c1cccc(OCc2cc(Cl)ccc2Cl)n1)N1CCN(C2CC2)c2ccccc21", "endogenously expressed TGR5 in NCI H716 (Homo sapiens, UniProt Q8TDU6)", "EC50", "1260 to 50100 nM"],
  ["O=C([C@@H]1CCCCN1Cc1cc(Cl)ccc1Cl)N1CCCc2ccccc21", "endogenously expressed TGR5 in NCI H716 (Homo sapiens, UniProt Q8TDU6)", "EC50", "1260 to 50100 nM"],
  ["O=C(N1CCCc2ncccc21)C1(OCc2cc(Cl)ccc2Cl)CC1", "endogenously expressed TGR5 in NCI H716 (Homo sapiens, UniProt Q8TDU6)", "EC50", "> 50100 nM"],
  ["O=C(N1CCN(C2CC2)c2ccccc21)C1(OCc2cc(Cl)ccc2Cl)CCC1", "endogenously expressed TGR5 in NCI H716 (Homo sapiens, UniProt Q8TDU6)", "EC50", "126 to 1000 nM"]
]}

Query: Recorded EC50 for O=C([C@@H]1CCCCN1C(=O)c1cc(Cl)ccc1Cl)N1CCN(C2CC2)c2ccccc21 , please?
Response: 1260 to 50100 nM

Query: // lookup EC50 for CC(C(=O)N1CCN(C2CC2)c2ccccc21)N1CCc2ccc(Cl)cc2C1 (stereo not shown)
Response: 1260 to 50100 nM

Query: Can you look up the measured EC50 of CC(C(=O)N1CCN(C2CC2)c2ccccc21)N(C)Cc1cc(Cl)ccc1Cl (stereo not shown) for me?
Response: 1260 to 50100 nM

Query: Which measured EC50 value corresponds to O=C([C@@H]1SCCN1Cc1cc(Cl)ccc1C(F)(F)F)N1CCN(C2CC2)c2ccccc21 ?
Response: 126 to 1000 nM

Query: Entry CC(OC1(C(=O)N2CCN(C3CC3)c3ccccc32)CC1)c1cc(Cl)ccc1Cl (stereo not shown) : reported EC50 = ?
Response: 1260 to 50100 nM

Query: I would be grateful if you could share the reported EC50 for CN(C[C@H](O)[C@@H](O)[C@@H](O)[C@H](O)CO)C(=O)NCCCc1cc(Cl)c(CNC2(C(=O)N3CCN(C4CC4)c4ccccc43)CC2)cc1Cl .
Response: 126 to 1000 nM

Query: Any idea what its EC50 is? The molecule is N#Cc1cccc(COC2(C(=O)N3CCN(C4CC4)c4ccccc43)CC2)c1
Response: 1260 to 50100 nM

Query: State the recorded EC50 for this entry: CC(=O)N1CC(OCc2cc(Cl)ccc2Cl)(C(=O)N2CCN(C3CC3)c3ccccc32)C1
Response: 1260 to 50100 nM

* * *

assay.notes: Compound plasma concentration, LC-MS/MS, 8 h post dose
Assay type: in vivo
experimental.conditions: male, C57BL/6, mouse, mice, 30 mg/kg, plasma, read-out: Mean Example Plasma Concentration
experimental.endpoint: concentration at 8 h (ng/mL)

(1) O=C(NCCCCCc1cc(Cl)c(CN2CSC[C@H]2C(=O)N2CCN(C3CC3)c3ccccc32)cc1Cl)N1CCN(CP(=O)(O)O)CC1 [Example 282]
(2) O=C(OC1(C(=O)N2CCN(C3CC3)c3ccccc32)CC1)c1cc(Cl)ccc1Cl [Example 166]
Query: Of 1 and 2 , whose reported concentration at 8 h is the larger number? Record your answer as the label of the chosen record.
Response: 1
(1: 2.8 ng/mL, 2: 1.4 ng/mL)

(a) C[C@@H](NC(=O)[C@@H](C)NC(=O)[C@@H](C)NC(=O)CCCCc1cc(Cl)c(CN2CSC[C@H]2C(=O)N2CCN(C3CC3)c3ccccc32)cc1Cl)C(=O)O [Example 227]
(b) O=C(CCCCc1cc(Cl)c(COC2(C(=O)N3CCN(C4CC4)c4ccccc43)CC2)cc1Cl)NC[C@H](O)[C@@H](O)[C@H](O)[C@H](O)CO [Example 193]
Query: Dear colleague, could you let me know whether a or b has the lower recorded concentration at 8 h? Thanks. # answer = label of selected item
Response: a

(1) CN(C(=O)C1(OCc2cc(Cl)c(CCCCCNC(=O)NC[C@H](O)[C@@H](O)[C@H](O)[C@H](O)CO)cc2Cl)CC1)c1ccccc1OC1CC1 [Example 258]
(2) O=C(NCCCCCc1cc(Cl)c(CN2CSC[C@H]2C(=O)N2CCN(C3CC3)c3ccccc32)cc1Cl)NC(CO)(CO)CO [Example 198]
Query: Between 1 and 2 , whose measured concentration at 8 h reads higher? Selection: enter the item's label.
Response: 1
(1: 9.4 ng/mL, 2: 3.6 ng/mL)
